test system: pERK in H460 cells; test: Inhibition of KRas phosphorylation of ERK (Cisbio HTRF pERK assay); conditions: Homo sapiens, NCI-H460, read-out: Inhibition (HTRF IC50) of KRas-mediated Phosphorylation of ERK, H460
pIC50: −log10 of the molar value.
experimental endpoint: pIC50

Guide cases for pIC50, answers given:
CCc1c(F)ccc2cc(O)cc(-c3ncc4c(N5C[C@@H](CO)C[C@](C)(O)C5)nc(OC[C@@]56CCCN5C[C@H](F)C6)nc4c3F)c12 (mixture of isomers) | 6.69
CCc1c(F)ccc2cc(O)cc(-c3ncc4c(NCC5CNS(=O)(=O)N5)nc(OC[C@@]56CCCN5C[C@H](F)C6)nc4c3F)c12 (stereo partly shown) | 6.01
CCc1c(F)ccc2cc(O)cc(-c3ncc4c(N5C[C@H](O)CC[C@@H](O)C5)nc(OC[C@@]56CCCN5C[C@H](F)C6)nc4c3F)c12 | 6.52
CCc1c(F)ccc2cc(O)cc(-c3ncc4c(N5CCC[C@@](C)(O)C5)nc(OCC5(CN6CCN(C)CC6)CC5)nc4c3F)c12 | 6.79
CCc1c(F)ccc2cc(O)cc(-c3ncc4c(N5CCCC6(CNS(=O)(=O)N6)C5)nc(OCC5(CN(C)C)CC5)nc4c3F)c12 (stereo not shown) | 6.93

1. Oc1cc(-c2ncc3c(N4CC5CC(O)CC4C5)nc(OC[C@@]45CCCN4C[C@H](F)C5)nc3c2F)c2c(Cl)c(F)ccc2c1 (stereo partly shown)
2. CCc1c(F)ccc2cc(O)cc(-c3ncc4c(N5CCOC[C@@](C)(O)C5)nc(OCC5(CN6CCCC6)CC5)nc4c3F)c12
Form: Entry with minimum pIC50 (choose one): 1 / 2 Indicate your choice by writing its label.
1
(1: 6.52, 2: 7.15)

----------
target: KRas G12C (Homo sapiens, UniProt P01116, G12C); assay: biochemical;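 note: binding to KRas assessed by TR-FRET displacement after one hour incubation at room temperature, potency fitted from percent-of-control values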
Sequence (P01116 1-169 isoform P01116-2 G12C): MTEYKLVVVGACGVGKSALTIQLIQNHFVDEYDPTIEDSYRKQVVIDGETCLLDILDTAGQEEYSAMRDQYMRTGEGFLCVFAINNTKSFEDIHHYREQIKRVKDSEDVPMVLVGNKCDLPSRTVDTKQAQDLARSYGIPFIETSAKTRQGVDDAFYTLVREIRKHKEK
experimental endpoint: IC50 (nM)

N#Cc1ccccc1N1CCN(c2nc(OCC34CCCN3CCC4)nc3c(F)c(-c4cccc5cccc(F)c45)ncc23)CC1 [Example 216] | 6300
O=C1CC(CNc2nc(OCC34CCCN3CCC4)nc3c(F)c(-c4cccc5cccc(Cl)c45)ncc23)CN1 (stereo not shown) [Example 102] | 399
NS(=O)(=O)CC1CCCN(c2nc(OCC34CCCN3CCC4)nc3c(F)c(-c4cccc5ccccc45)ncc23)C1 (stereo not shown) [Example 436] | 271

P. CC1CCCN(c2nc(OCC34CCCN3CCC4)nc3c(F)c(-c4cccc5cccc(F)c45)ncc23)C1 (stereo not shown) [Example 22]
Q. CNS(=O)(=O)C1CCCN(c2nc(OCC34CCCN3CCC4)nc3c(F)c(-c4cccc5cccc(F)c45)ncc23)C1 (stereo not shown) [Example 237]
Form: Entry with minimum IC50 (choose one): P / Q Indicate your choice by writing its label.
Q

----------
# IC50 per record follows
molecular target: KRas G12V (Homo sapiens, UniProt P01116, G12V); experiment: biochemical;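 note: KRas binding measured by TR-FRET displacement at room temperature, IC50 fitted from percent of control values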
Sequence (P01116 1-169 isoform P01116-2 G12V): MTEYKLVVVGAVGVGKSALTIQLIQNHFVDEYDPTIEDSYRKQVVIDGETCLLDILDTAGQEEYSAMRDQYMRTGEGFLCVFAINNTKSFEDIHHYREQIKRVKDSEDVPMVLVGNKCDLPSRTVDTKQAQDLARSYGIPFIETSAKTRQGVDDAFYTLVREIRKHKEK

Guide cases for IC50, answers given:
CCc1c(F)ccc2cc(O)cc(-c3ncc4c(N5CC(O)CC(F)(F)C5)nc(OC[C@@]56CCCN5C[C@H](F)C6)nc4c3F)c12 (stereo partly shown) | ≤ 2 nM
CCc1c(F)ccc2cc(O)cc(-c3ncc4c(N5CCCC6(CNC6=O)C5)nc(OC[C@@]56CCCN5C[C@H](F)C6)nc4c3F)c12 (stereo partly shown) | ≤ 2 nM
CCc1c(F)ccc2cc(O)cc(-c3ncc4c(N5C[C@@H]6C[C@H](C5)[C@H](O)C6)nc(OCC5(CN6CCCC6)CC5)nc4c3F)c12 | ≤ 2 nM

Fill in: IC50 of CCc1c(F)ccc2cc(O)cc(-c3ncc4c(N5CCCc6nn(C(=O)N(C)C)cc6C5)nc(OC[C@@]56CCCN5C[C@H](F)C6)nc4c3F)c12 is ___
≤ 2 nM
